Test system: ov-NNMT NCI-H82 cell
Assay Details: Cell viability (Promega CellTiter-Glo), ov-NNMT NCI-H82 cell
Format: cell-based
Study Conditions: Homo sapiens, NCI-H82 cell overexpressing NNMT protein
Reported Metric: IC50 (µM)

// known answers, use as guide
[
  {
    "Compound": "COc1ccc2cc3[n+](cc2c1N1CCC(Cl)CC1)CCc1cc2c(cc1-3)OCCO2",
    "Result Unit": "µM",
    "IC50": 2.35
  },
  {
    "Compound": "COc1ccc2cc3[n+](cc2c1N1CCC(C)CC1)CCc1cc2c(cc1-3)OCCO2",
    "Result Unit": "µM",
    "IC50": 0.55
  },
  {
    "Compound": "COc1ccc2cc3[n+](cc2c1N1CCC2(CCO2)CC1)CCc1cc2c(cc1-3)OCO2",
    "Result Unit": "µM",
    "IC50": 8.96
  },
  {
    "Compound": "COc1ccc2cc3[n+](cc2c1N1CCCCC1)CCc1cc2c(cc1-3)OCO2",
    "Result Unit": "µM",
    "IC50": 0.68
  },
  {
    "Compound": "COc1ccc2cc3[n+](cc2c1N1CCCC1)CCc1cc2c(cc1-3)OCO2",
    "Result Unit": "µM",
    "IC50": 1.02
  }
]

(a) COc1ccc2cc3[n+](cc2c1N1CCC(F)CC1)CCc1cc2c(cc1-3)OCO2
(b) COc1ccc2cc3[n+](cc2c1N1CCOC(C)C1)CCc1cc2c(cc1-3)OCO2 (stereo not drawn)
(c) COc1ccc2cc3[n+](cc2c1N1CCC(F)(F)CC1)CCc1cc2c(cc1-3)OCO2
(d) COc1ccc2cc3[n+](cc2c1N1CCCC(C)C1)CCc1cc2c(cc1-3)OCO2 (stereo not drawn)
(e) COc1ccc2cc3[n+](cc2c1N1CCC(Cl)CC1)CCc1cc2c(cc1-3)OCO2
[Q] Ascending by IC50, please: list the compounds accordingly. # the answer lists labels in the order requested
[A] d, e, a, c, b
(d: 0.72 µM, e: 1.94 µM, a: 3.48 µM, c: 5.85 µM, b: 10.4 µM)

====

Test system: ov-NNMT NCI-H82 cell
Assay Details: Cell viability (Promega CellTiter-Glo), ov-NNMT NCI-H82 cell
Assay type: cell-based
Study Conditions: Homo sapiens, NCI-H82 cell overexpressing NNMT protein
Reported Metric: IC50 (µM)

[
  {
    "Compound": "COc1ccc2cc3[n+](cc2c1N1CCC(C)CC1)CCc1cc2c(cc1-3)OCO2",
    "IC50 [µM]": 0.58
  },
  {
    "Compound": "COc1ccc2cc3[n+](cc2c1N1CCC(C(F)(F)F)CC1)CCc1cc2c(cc1-3)OCCO2",
    "IC50 [µM]": 0.89
  },
  {
    "Compound": "COc1ccc2cc3[n+](cc2c1N1CCC(C(F)(F)F)CC1)CCc1cc2c(cc1-3)OCO2",
    "IC50 [µM]": 0.88
  },
  {
    "Compound": "COc1ccc2cc3[n+](cc2c1N1CCCCCC1)CCc1cc2c(cc1-3)OCO2",
    "IC50 [µM]": 0.85
  },
  {
    "Compound": "COc1ccc2cc3[n+](cc2c1N1CCCCC1C)CCc1cc2c(cc1-3)OCO2 (centres unmarked)",
    "IC50 [µM]": 0.68
  }
]
